Test system: Japanese medaka Retinoid X Receptor beta (RXRb), gene 100125505
experimental protocol: ATG_jmRXRb_EcoTox2: Attagene TRANS-FACTORIAL EcoTox-2 HepG2 Assay for Japanese medaka Retinoid X Receptor beta (RXRb)
Records with an inconclusive call do not appear. The source made the active and inactive calls. Rule for the calls: active = hit-call score of the fitted dose curve at least 0.9, where 1 is the maximum; inconclusive = response in the unintended direction; inactive = score below 0.9.
reported property: AC50

Illustrative cases are given below, each with its answer.
{"molecule": "C=C(c1ccc(C(=O)O)cc1)c1cc2c(cc1C)C(C)(C)CCC2(C)C", "AC50": "0.00302 µM (active)"}
{"molecule": "CC(C)(Oc1ccc(Cl)cc1)C(=O)O", "AC50": "inactive"}
{"molecule": "CN(CCOc1ccc(CC2SC(=O)NC2=O)cc1)c1ccccn1 (stereo unspecified)", "AC50": "12.9 µM (active)"}
{"molecule": "C[C@@H]1C[C@H]2[C@@H]3CCC4=CC(=O)C=C[C@]4(C)[C@@]3(F)[C@@H](O)C[C@]2(C)[C@@]1(O)C(=O)COP(=O)(O)O", "AC50": "inactive"}
{"molecule": "Cc1nc(-c2ccc(C(F)(F)F)cc2)sc1C(=O)NCc1ccc(OC(C)(C)C(=O)O)cc1", "AC50": "inactive"}

With those in mind, consider the next molecule.
stdin: Consider the molecule CC(c1cc2ccccc2s1)N(O)C(N)=O (stereo unspecified) and give its recorded AC50.
stdout: inactive
